assay: Inhibition of recombinant HCV NS5B Cdelta21 polymerase assessed as [alpha-32P]UMP incorporation into RNA after 1 hr by liquid scintillation counting; design: species or system Hepacivirus hominis
Items are presented alongside their recorded log10 IC50.
readoutName: log10 IC50 (log10 of the value in µM)

>>> df
                              chemicalstring  testvalue
 0             Cc1csc(C(=O)/C=C(\O)C(=O)O)c1       1.51
 1              Cc1ccccc1C(=O)/C=C(\O)C(=O)O       0.84
 2   O=C(O)/C(O)=C/C(=O)c1ccccc1[N+](=O)[O-]       1.05
 3           O=C(O)/C(O)=C/C(=O)c1c(F)cccc1F       1.23
 4             Cc1ccc(C(=O)/C=C(\O)C(=O)O)s1       1.74
 5          N#Cc1cccc(C(=O)/C=C(\O)C(=O)O)c1       1.60
 6  O=C(O)/C(O)=C/C(=O)c1cccc(-c2nnn[nH]2)c1       0.72
 7                O=C(O)/C(O)=C/C(=O)c1nccs1       1.48
 8    O=C(O)/C(O)=C/C(=O)c1ccc(-c2ccccc2)cc1       1.32
 9              O=C(O)/C(O)=C/C(=O)c1ccccc1F       1.17
10            CCOC(=O)/C(O)=C/C(=O)c1ccccc1F       1.09
11             O=C(O)/C(O)=C/C(=O)c1ccc(I)s1       1.81
12                O=C(O)/C(O)=C/C(=O)c1ccco1       1.34

----------
experiment: Inhibition of recombinant HCV NS5B Cdelta21 polymerase assessed as [alpha-32P]UMP incorporation into RNA after 1 hr by liquid scintillation counting; design: species or system Hepacivirus hominis
Response field label: string, one of satisfied (IC50 strictly below 30 µM) or not satisfied.

>>> df
                           chemicalstring          group
 0   O=C(O)/C(O)=C/C(=O)c1cc2cc(Br)ccc2o1      satisfied
 1  CCOC(=O)/C(O)=C/C(=O)c1n[nH]c2ccccc12  not satisfied
 2         O=C(O)/C(O)=C/C(=O)c1cccc(F)c1  not satisfied
 3    O=C(O)/C(O)=C/C(=O)c1n[nH]c2ccccc12      satisfied
 4          O=C(O)/C(O)=C/C(=O)c1ccc[nH]1      satisfied
 5       O=C(O)/C(O)=C/C(=O)c1cc2ccccc2s1  not satisfied
 6            Cc1ccsc1C(=O)/C=C(\O)C(=O)O      satisfied
 7         O=C(O)/C(O)=C/C(=O)c1ccc(Cl)s1      satisfied
 8         O=C(O)/C(O)=C/C(=O)c1ccc(Br)s1  not satisfied
 9             O=C(O)/C(O)=C/C(=O)c1cccs1      satisfied
10      O=C(O)/C(O)=C/C(=O)c1ccc(Cl)cc1Cl  not satisfied
11        O=C(O)/C(O)=C/C(=O)c1ccc(F)cc1F      satisfied
